Test: Half life in 10 mM potassium phosphate buffer at 250 uM at pH 9 at 37 degC by HPLC analysis
Type: physicochemical
half-life at 250 µM for assorted molecules

For record `CCOC(=O)[C@@H](N)CCCN/C(N)=N/O[C@@H]1O[C@H](CO)[C@H](O)[C@H](O)[C@H]1O.Cl.Cl` the listed half-life at 250 µM is 600 to 720 min

For record `CC(=O)OC[C@H]1O[C@@H](O/N=C(\N)NCCC[C@H](N)C(=O)O)[C@H](OC(C)=O)[C@@H](OC(C)=O)[C@H]1OC(C)=O.Cl.Cl` the listed half-life at 250 µM is > 1440 min
